Measurement Target: PADI4 (Homo sapiens, UniProt Q9UM07)
Construct: His6; made in house
Sequence (Q9UM07 whole entry): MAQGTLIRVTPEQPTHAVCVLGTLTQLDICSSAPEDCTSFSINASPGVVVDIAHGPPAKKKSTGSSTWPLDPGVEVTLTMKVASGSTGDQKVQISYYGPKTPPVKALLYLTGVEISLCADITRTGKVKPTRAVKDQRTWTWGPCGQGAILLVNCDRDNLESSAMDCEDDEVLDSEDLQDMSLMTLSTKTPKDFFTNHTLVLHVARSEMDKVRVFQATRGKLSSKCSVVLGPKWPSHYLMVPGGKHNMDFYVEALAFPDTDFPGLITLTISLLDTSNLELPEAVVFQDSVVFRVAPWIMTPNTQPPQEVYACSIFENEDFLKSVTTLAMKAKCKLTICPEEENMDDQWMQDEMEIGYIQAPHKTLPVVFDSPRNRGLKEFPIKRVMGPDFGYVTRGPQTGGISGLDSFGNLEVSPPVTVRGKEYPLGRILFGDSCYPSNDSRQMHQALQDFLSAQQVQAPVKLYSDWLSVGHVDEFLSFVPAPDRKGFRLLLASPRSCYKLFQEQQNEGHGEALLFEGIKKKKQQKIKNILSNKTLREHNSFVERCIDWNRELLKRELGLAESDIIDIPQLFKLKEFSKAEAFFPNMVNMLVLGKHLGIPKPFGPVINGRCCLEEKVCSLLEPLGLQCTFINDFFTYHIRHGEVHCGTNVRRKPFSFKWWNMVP
Protocol Details: Surface plasmon resonance (SPR), single cycle kinetics
Type: binding
Condition: two-state reaction model, k-1/k+1
Where a SMILES comes first, the peptide text is derived from it. Bridges are numbered along the chain shown (N, C = ends). [ ]: non-standard residue; d: D form. Orn(fluoroacetimidoyl) = N=C(CF)NCCC[C@H](N)C(=O)O
Assay Endpoint: Ki (nM)
Numbers only, in nM.

Compound	Uom	Measured Number
N=C(N)NCCC[C@@H]1NC(=O)[C@H](CCCNC(=N)CF)NC(=O)[C@H](CC(=O)O)NC(=O)[C@H](Cc2ccc(O)cc2)NC(=O)[C@H](CCCCN)NC(=O)[C@H](CO)NC(=O)[C@@H](Cc2ccc(O)cc2)NC(=O)CSC[C@@H](C(=O)NCC(N)=O)NC(=O)[C@H](CC(=O)O)NC(=O)[C@H](CCCNC(=N)N)NC(=O)[C@@H]2CCCN2C(=O)[C@H](CO)NC1=O [cP4_4, ySKYD(2)RSPRDCG] ({CH2CO}-[dY]SKYD[Orn(fluoroacetimidoyl)]RSPRDCG-NH2; thioether N-12)	nM	120
N=C(N)NCCC[C@@H]1NC(=O)[C@H](Cc2ccc(O)cc2)NC(=O)[C@H](Cc2c[nH]cn2)NC(=O)[C@H](CCCNC(=N)CF)NC(=O)[C@H](CC(=O)O)NC(=O)[C@H](CCCNC(=N)N)NC(=O)[C@@H](Cc2ccc(O)cc2)NC(=O)CSC[C@@H](C(=O)NCC(N)=O)NC(=O)[C@H](Cc2ccc(O)cc2)NC(=O)[C@H](CCCCN)NC(=O)[C@@H]2CCCN2C(=O)[C@H](Cc2c[nH]cn2)NC1=O [PADI4_3_H4(2), yRD(2)HYRHPKYCG] ({CH2CO}-[dY]RD[Orn(fluoroacetimidoyl)]HYRHPKYCG-NH2; thioether N-12)	nM	15

Now consider the entry below.
// query Ki value for entry CC[C@H](C)[C@@H]1NC(=O)[C@H](CCCNC(=N)N)NC(=O)[C@H](Cc2ccc(O)cc2)NC(=O)[C@H](CCCNC(=N)N)NC(=O)[C@H](CCC(=O)O)NC(=O)[C@H](CCCNC(=N)CF)NC(=O)[C@H](CC(N)=O)NC(=O)[C@H](CC(C)C)NC(=O)[C@@H](Cc2ccc(O)cc2)NC(=O)CSC[C@@H](C(=O)NCC(N)=O)NC(=O)[C@H](CO)NC1=O [cP4_18] ({CH2CO}-[dY]LN[Orn(fluoroacetimidoyl)]ERYRISCG-NH2; thioether N-11)
810

###

Measurement Target: PADI4 (Homo sapiens, UniProt Q9UM07)
Construct: His6; made in house
Protocol Details: COLDER inhibition assay, BAEE substrate, with or without 1 h preincubation
Type: biochemical
Condition: peptide 0.3 µM, T=0; read-out: PADI4 activity normalised to 0.1% DMSO
Where a SMILES comes first, the peptide text is derived from it. Bridges are numbered along the chain shown (N, C = ends). [ ]: non-standard residue; d: D form. Orn(fluoroacetimidoyl) = N=C(CF)NCCC[C@H](N)C(=O)O
Assay Endpoint: remaining activity at 0.3 µM (%)
One number for each entry, in %.

Please tell me: remaining activity at 0.3 µM of N=C(N)NCCC[C@@H]1NC(=O)[C@H](CCCCN)NC(=O)[C@H](CC(N)=O)NC(=O)[C@H](Cc2ccccc2)NC(=O)[C@H](CC(=O)O)NC(=O)[C@H](Cc2c[nH]c3ccccc23)NC(=O)[C@H](CC(N)=O)NC(=O)[C@H](CCCNC(=N)CF)NC(=O)[C@H](Cc2ccc(O)cc2)NC(=O)[C@H](Cc2c[nH]c3ccccc23)NC(=O)[C@@H](Cc2ccc(O)cc2)NC(=O)CSC[C@@H](C(=O)NCC(N)=O)NC1=O [cP4_10, yWY(2)NWDFNKRCG] ({CH2CO}-[dY]WY[Orn(fluoroacetimidoyl)]NWDFNKRCG-NH2; thioether N-12) , system PADI4 (Homo sapiens, UniProt Q9UM07)?
91.5

Entry source: paper PMC11659602
